# measuredOn: Mu-type opioid receptor (Cavia porcellus, UniProt P97266)
# Sequence (P97266 whole entry): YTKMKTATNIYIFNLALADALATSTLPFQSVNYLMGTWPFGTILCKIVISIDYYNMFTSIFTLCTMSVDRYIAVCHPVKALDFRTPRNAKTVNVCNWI
Rule for this label: met means Ki is less than 10 nM; not met means Ki is at least 10 nM.

Answered cases to consult:
INSERT INTO measurements (structurestring, answerlabel) VALUES
  ('CN1CC[C@]23c4c5ccc(O)c4O[C@H]2[C@@H](NC(=O)CNC(=O)CCC(=O)NCC(=O)N[C@H]2CC[C@@]4(O)[C@H]6Cc7ccc(O)c8c7[C@@]4(CCN6C)[C@H]2O8)CC[C@@]3(O)[C@H]1C5', 'not met'),
  ('O=C(CCC(=O)NCC(=O)NCC(=O)NCC(=O)N[C@@H]1CC[C@@]2(O)[C@H]3Cc4ccc(O)c5c4[C@@]2(CCN3CC2CC2)[C@H]1O5)NCC(=O)NCC(=O)NCC(=O)N[C@@H]1CC[C@@]2(O)[C@H]3Cc4ccc(O)c5c4[C@@]2(CCN3CC2CC2)[C@H]1O5', 'met'),
  ('O=C(CCC(=O)N[C@@H]1CC[C@@]2(O)[C@H]3Cc4ccc(O)c5c4[C@@]2(CCN3CC2CC2)[C@H]1O5)N[C@@H]1CC[C@@]2(O)[C@H]3Cc4ccc(O)c5c4[C@@]2(CCN3CC2CC2)[C@H]1O5', 'met'),
  ('CN1CC[C@]23c4c5ccc(O)c4O[C@@H]2[C@H](NC(=O)CNC(=O)CCC(=O)NCC(=O)N[C@@H]2CC[C@]4(O)[C@H]6Cc7ccc(O)c8c7[C@@]4(CCN6C)[C@@H]2O8)CC[C@]3(O)[C@H]1C5', 'not met');

Exercise: Decide: Ki of "O=C(CCC(=O)NCC(=O)NCC(=O)N[C@@H]1CC[C@@]2(O)[C@H]3Cc4ccc(O)c5c4[C@@]2(CCN3CC2CC2)[C@H]1O5)NCC(=O)NCC(=O)N[C@@H]1CC[C@@]2(O)[C@H]3Cc4ccc(O)c5c4[C@@]2(CCN3CC2CC2)[C@H]1O5" strictly below 10 nM?
Solution: met

Exercise: Item "CN1CC[C@]23c4c5ccc(O)c4O[C@@H]2[C@H](NC(=O)CNC(=O)CNC(=O)CNC(=O)CCC(=O)NCC(=O)NCC(=O)NCC(=O)N[C@@H]2CC[C@]4(O)[C@H]6Cc7ccc(O)c8c7[C@@]4(CCN6C)[C@@H]2O8)CC[C@]3(O)[C@H]1C5" : Ki beneath 10 nM, strictly?
Solution: not met

Exercise: API: query returns whether the molecule falls strictly under 10 nM in Ki. Query: "O=C(CCC(=O)NCC(=O)N[C@@H]1CC[C@@]2(O)[C@H]3Cc4ccc(O)c5c4[C@@]2(CCN3CC2CC2)[C@H]1O5)NCC(=O)N[C@@H]1CC[C@@]2(O)[C@H]3Cc4ccc(O)c5c4[C@@]2(CCN3CC2CC2)[C@H]1O5"
Solution: met

###

Recorded IC50 by entry
# measuredOn: Opioid receptors; mu & kappa (Homo sapiens, UniProt P41145+P35372)
# protocolDescription: Activity against opioid receptor in guinea pig ileum longitudinal muscle
# Assay type: functional, tissue-based, Cavia porcellus
# assayContext: target entry is the homologue from another species
// units = nM; emit number, no label

INSERT INTO measurements (structurestring, resultvalue) VALUES
  ('CC(=O)N[C@@H]1CC[C@@]2(O)[C@H]3Cc4ccc(O)c5c4[C@@]2(CCN3C)[C@H]1O5', 45.9),
  ('CN1CC[C@]23c4c5ccc(O)c4O[C@@H]2[C@H](NC(=O)CCC(=O)N[C@@H]2CC[C@]4(O)[C@H]6Cc7ccc(O)c8c7[C@@]4(CCN6C)[C@@H]2O8)CC[C@]3(O)[C@H]1C5', 15.7);

Please turn your attention to the following entry.
Exercise: Consider the compound "CN1CC[C@]23c4c5ccc(O)c4O[C@@H]2[C@H](NC(=O)CNC(=O)CNC(=O)CNC(=O)CCC(=O)NCC(=O)NCC(=O)NCC(=O)N[C@@H]2CC[C@]4(O)[C@H]6Cc7ccc(O)c8c7[C@@]4(CCN6C)[C@@H]2O8)CC[C@]3(O)[C@H]1C5" and give its measured IC50.
Solution: 12.6

###

# protocolDescription: Potency ratio is the ratio of morphine IC50 to that of compound on same tissue
List of Potency ratio values.
Reply briefly: the number, and no unit.

INSERT INTO results (structurestring, resultvalue) VALUES
  ('CN1CC[C@]23c4c5ccc(O)c4O[C@H]2[C@@H](NC(=O)CNC(=O)CCC(=O)NCC(=O)N[C@H]2CC[C@@]4(O)[C@H]6Cc7ccc(O)c8c7[C@@]4(CCN6C)[C@H]2O8)CC[C@@]3(O)[C@H]1C5', 4),
  ('CN1CC[C@]23c4c5ccc(O)c4O[C@H]2[C@@H](NC(=O)CNC(=O)CNC(=O)CCC(=O)NCC(=O)NCC(=O)N[C@H]2CC[C@@]4(O)[C@H]6Cc7ccc(O)c8c7[C@@]4(CCN6C)[C@H]2O8)CC[C@@]3(O)[C@H]1C5', 36),
  ('CN1CC[C@]23c4c5ccc(O)c4O[C@@H]2[C@H](NC(=O)CNC(=O)CNC(=O)CCC(=O)NCC(=O)NCC(=O)N[C@@H]2CC[C@]4(O)[C@H]6Cc7ccc(O)c8c7[C@@]4(CCN6C)[C@@H]2O8)CC[C@]3(O)[C@H]1C5', 8),
  ('CN1CC[C@]23c4c5ccc(O)c4O[C@@H]2[C@H](NC(=O)CNC(=O)CCC(=O)NCC(=O)N[C@@H]2CC[C@]4(O)[C@H]6Cc7ccc(O)c8c7[C@@]4(CCN6C)[C@@H]2O8)CC[C@]3(O)[C@H]1C5', 5.8),
  ('CN1CC[C@]23c4c5ccc(O)c4O[C@@H]2[C@H](NC(=O)CCC(=O)N[C@@H]2CC[C@]4(O)[C@H]6Cc7ccc(O)c8c7[C@@]4(CCN6C)[C@@H]2O8)CC[C@]3(O)[C@H]1C5', 4.3);

Exercise: Entry "CC(=O)N[C@@H]1CC[C@@]2(O)[C@H]3Cc4ccc(O)c5c4[C@@]2(CCN3C)[C@H]1O5" has what Potency ratio?
Solution: 2.3

Exercise: Param item = "CN1CC[C@]23c4c5ccc(O)c4O[C@H]2[C@@H](NC(=O)CNC(=O)CNC(=O)CNC(=O)CCC(=O)NCC(=O)NCC(=O)NCC(=O)N[C@H]2CC[C@@]4(O)[C@H]6Cc7ccc(O)c8c7[C@@]4(CCN6C)[C@H]2O8)CC[C@@]3(O)[C@H]1C5" ; retrieve measured Potency ratio.
Solution: 5.5

Exercise: Using the record for "CN1CC[C@]23c4c5ccc(O)c4O[C@@H]2[C@H](NC(=O)CNC(=O)CNC(=O)CNC(=O)CCC(=O)NCC(=O)NCC(=O)NCC(=O)N[C@@H]2CC[C@]4(O)[C@H]6Cc7ccc(O)c8c7[C@@]4(CCN6C)[C@@H]2O8)CC[C@]3(O)[C@H]1C5" , report its Potency ratio.
Solution: 3.9

Exercise: What Potency ratio value was documented for this molecule, "CN1CC[C@]23c4c5ccc(O)c4O[C@H]2[C@@H](NC(=O)CCC(=O)N[C@H]2CC[C@@]4(O)[C@H]6Cc7ccc(O)c8c7[C@@]4(CCN6C)[C@H]2O8)CC[C@@]3(O)[C@H]1C5" ?
Solution: 4.6

###

# protocolDescription: Relative potency is the bivalent potency ratio divided by monovalent potency ratio
measuredParameter: Ratio
No unit in the answer, only the number.

INSERT INTO assay_data (structurestring, resultvalue) VALUES
  ('CN1CC[C@]23c4c5ccc(O)c4O[C@H]2[C@@H](NC(=O)CNC(=O)CNC(=O)CCC(=O)NCC(=O)NCC(=O)N[C@H]2CC[C@@]4(O)[C@H]6Cc7ccc(O)c8c7[C@@]4(CCN6C)[C@H]2O8)CC[C@@]3(O)[C@H]1C5', 18.9),
  ('CN1CC[C@]23c4c5ccc(O)c4O[C@@H]2[C@H](NC(=O)CCC(=O)N[C@@H]2CC[C@]4(O)[C@H]6Cc7ccc(O)c8c7[C@@]4(CCN6C)[C@@H]2O8)CC[C@]3(O)[C@H]1C5', 1.9),
  ('CN1CC[C@]23c4c5ccc(O)c4O[C@H]2[C@@H](NC(=O)CNC(=O)CNC(=O)CNC(=O)CCC(=O)NCC(=O)NCC(=O)NCC(=O)N[C@H]2CC[C@@]4(O)[C@H]6Cc7ccc(O)c8c7[C@@]4(CCN6C)[C@H]2O8)CC[C@@]3(O)[C@H]1C5', 2.9),
  ('CN1CC[C@]23c4c5ccc(O)c4O[C@@H]2[C@H](NC(=O)CNC(=O)CCC(=O)NCC(=O)N[C@@H]2CC[C@]4(O)[C@H]6Cc7ccc(O)c8c7[C@@]4(CCN6C)[C@@H]2O8)CC[C@]3(O)[C@H]1C5', 2.5),
  ('CN1CC[C@]23c4c5ccc(O)c4O[C@@H]2[C@H](NC(=O)CNC(=O)CNC(=O)CNC(=O)CCC(=O)NCC(=O)NCC(=O)NCC(=O)N[C@@H]2CC[C@]4(O)[C@H]6Cc7ccc(O)c8c7[C@@]4(CCN6C)[C@@H]2O8)CC[C@]3(O)[C@H]1C5', 1.7),
  ('CC(=O)N[C@@H]1CC[C@@]2(O)[C@H]3Cc4ccc(O)c5c4[C@@]2(CCN3C)[C@H]1O5', 1),
  ('CN1CC[C@]23c4c5ccc(O)c4O[C@H]2[C@@H](NC(=O)CNC(=O)CCC(=O)NCC(=O)N[C@H]2CC[C@@]4(O)[C@H]6Cc7ccc(O)c8c7[C@@]4(CCN6C)[C@H]2O8)CC[C@@]3(O)[C@H]1C5', 2.1),
  ('CN1CC[C@]23c4c5ccc(O)c4O[C@H]2[C@@H](NC(=O)CCC(=O)N[C@H]2CC[C@@]4(O)[C@H]6Cc7ccc(O)c8c7[C@@]4(CCN6C)[C@H]2O8)CC[C@@]3(O)[C@H]1C5', 2.4);

Could you now look at the following compound, please?
Exercise: I am curious: what Ratio value has been reported for "CN1CC[C@]23c4c5ccc(O)c4O[C@@H]2[C@H](NC(=O)CNC(=O)CNC(=O)CCC(=O)NCC(=O)NCC(=O)N[C@@H]2CC[C@]4(O)[C@H]6Cc7ccc(O)c8c7[C@@]4(CCN6C)[C@@H]2O8)CC[C@]3(O)[C@H]1C5" ?
Solution: 3.5
